# System: HepG2
# Protocol Summary: GSK_TCMDC: Percent inhibition of human HepG2 cell line. Test compounds present at 10uM.
# Type: functional
Endpoint: Inhibition

Hi! What's the reported Inhibition for COc1cccc(-c2ccc(NC(=O)C3CCCN(Cc4cccc(OC)c4O)C3)cc2)c1 (stereo not given) on HepG2?
13%

Hi! What's the reported Inhibition for `Cl.N=C(NCCc1ccc(Cl)cc1)c1ccc(Cl)c(Cl)c1` on HepG2?
43%

Hi! What's the reported Inhibition for `O=C(N[C@@H](CC1CCCCC1)C(=O)NCCN1CCOCC1)c1ccc(O)c(-c2ccc(Cl)c(Cl)c2)c1` on HepG2?
0%

Hi! What's the reported Inhibition for `COc1cc(NC(=O)c2cc3c(C)nn(-c4cccc(C(F)(F)F)c4)c3s2)cc(OC)c1OC` on HepG2?
0%

Hi! What's the reported Inhibition for `COc1cc2c(Nc3ccc(Br)cc3F)ncnc2cc1OCC1CCN(C)CC1.Cl` on HepG2?
10%
